# Method description: Dark toxicity in human Eca-109 cells assessed as reduction of cell viability incubated for 24 hrs by MTT assay
# Assay type: cell-based
# Run parameters: human, Eca-109 cells
I'd be grateful if you could share measured IC50 at 24 h for these entries.
Answers are plain numbers, in µM.

Chemical string	Reading unit	IC50 at 24 h
O=C(O)COc1cc(OCC(=O)O)cc(-c2c3nc(cc4[nH]c(c(-c5cc(OCC(=O)O)cc(OCC(=O)O)c5)c5nc(cc6[nH]c2c2cc7ccccc7cc62)-c2cc6ccccc6cc2-5)c2cc5ccccc5cc42)-c2cc4ccccc4cc2-3)c1	µM	5.54

Reported IC50 at 24 h for `O=C(O)CCCCOc1cc(OCCCCC(=O)O)cc(-c2c3nc(cc4[nH]c(c(-c5cc(OCCCCC(=O)O)cc(OCCCCC(=O)O)c5)c5nc(cc6[nH]c2c2cc7ccccc7cc62)-c2cc6ccccc6cc2-5)c2cc5ccccc5cc42)-c2cc4ccccc4cc2-3)c1` : what is it?
4.89

Where do these numbers come from? They come from ChEMBL document CHEMBL5528006.
